Data provenance is ChEMBL document CHEMBL1150512.

Listed next: entries and their corresponding inhibition in vivo at 1 mg/kg.
Test system: Rattus norvegicus
Assay: Inhibitory activity against the pressor response induced by Angiotensin II (AII) in conscious rats, at 1 mg/kg p.o. at 3h
Assay type: functional
Conditions: route oral
Answer by giving the amount and then stating its unit.

input: Query: inhibition in vivo at 1 mg/kg; subject: `CCc1nc2cccc(C(=O)O)c2n1Cc1ccc(-c2ccccc2-c2noc(O)n2)cc1`
output: 88%

input: Could you tell me which inhibition in vivo at 1 mg/kg is on file for `COc1nc2cccc(C(=O)O)c2n1Cc1ccc(-c2ccccc2-c2noc(O)n2)cc1` ?
output: 90%

input: Which inhibition in vivo at 1 mg/kg reading was recorded for the compound `CNc1nc2cccc(C(=O)O)c2n1Cc1ccc(-c2ccccc2-c2noc(O)n2)cc1` ?
output: 14%

input: Look at this compound and give its reported inhibition in vivo at 1 mg/kg. `CSc1nc2cccc(C(=O)O)c2n1Cc1ccc(-c2ccccc2-c2noc(O)n2)cc1`
output: 100%

input: Given CCOc1nc2cccc(C(=O)O)c2n1Cc1ccc(-c2ccccc2-c2noc(=O)[nH]2)cc1 [AZILSARTAN] , state its recorded inhibition in vivo at 1 mg/kg.
output: 100%

input: Quick one: inhibition in vivo at 1 mg/kg of `CCCOc1nc2cccc(C(=O)O)c2n1Cc1ccc(-c2ccccc2-c2noc(O)n2)cc1` ?
output: 100%

input: Please report the recorded inhibition in vivo at 1 mg/kg for `CCCCc1nc2cccc(C(=O)O)c2n1Cc1ccc(-c2ccccc2-c2noc(O)n2)cc1` .
output: 68%
